assay_overview: Cytotoxicity against African green monkey Vero cells by MTT assay
Format: toxicity, cell-based
measurement_conditions: chlorocebus sabaeus
In plain terms, low CC50, meaning strictly below 20 µM, gives label 1, and everything else gives label 0.

Field: example entries. Status: answers known.
CC(C)C[C@@H](C(=O)N[C@H](C(=O)OC1CCCC1)c1ccccc1)[C@H](O)C(=O)NO | label 1
COc1ccc(C[C@H](N)C(=O)N[C@H]2[C@@H](O)[C@H](n3cnc4c(N(C)C)ncnc43)O[C@@H]2CO)cc1 | label 1
CC(C)C[C@H](NC(=O)[C@@H](O)[C@H](N)Cc1ccccc1)C(=O)O | label 0

query: In the record for O=C(O)CNC(=O)C(CS)Cc1ccccc1 (stereo not given) , is CC50 less than 20 µM?
result: label 0

query: In the record for CN(C)c1ncnc2c1ncn2[C@@H]1O[C@H](CCl)[C@@H](NC(=O)[C@@H](CSC(c2ccccc2)c2ccccc2)NC(=O)OC(C)(C)C)[C@H]1O , is CC50 less than 20 µM?
result: label 0

query: In the record for CN(C)c1ncnc2c1ncn2[C@@H]1O[C@H](CO)[C@@H](NC(=O)[C@H](N)CSC(c2ccccc2)c2ccccc2)[C@H]1O , is CC50 less than 20 µM?
result: label 0

query: In the record for CN(C)c1ncnc2c1ncn2[C@@H]1O[C@H](CCl)[C@@H](NC(=O)[C@H](CSC(c2ccccc2)c2ccccc2)NC(=O)OC(C)(C)C)[C@H]1O , is CC50 less than 20 µM?
result: label 0

query: In the record for CN(C)c1ncnc2c1ncn2[C@@H]1O[C@H](CO)[C@@H](NC(=O)[C@@H](N)CSC(c2ccccc2)c2ccccc2)[C@H]1O , is CC50 less than 20 µM?
result: label 0

query: In the record for CN(C)c1ncnc2c1ncn2[C@@H]1O[C@H](CO)[C@@H](NC(=O)[C@@H](N)CSC23CC4CC(CC(C4)C2)C3)[C@H]1O , is CC50 less than 20 µM?
result: label 1

query: In the record for CN(C)c1ncnc2c1ncn2[C@@H]1O[C@H](CCl)[C@@H](NC(=O)[C@@H](N)CSC(c2ccccc2)c2ccccc2)[C@H]1O , is CC50 less than 20 µM?
result: label 0

###

Tested on: Vero
assay_overview: Inhibition of protein synthesis in African green monkey Vero cells at 25 uM relative to control
Assay type: functional
measurement_conditions: Chlorocebus sabaeus
Here the recorded inhibition at 25 µM is given for each entry.
Report the value in % with no unit label.

CN(C)c1ncnc2c1ncn2[C@@H]1O[C@H](CCl)[C@@H](NC(=O)[C@H](CSC23CC4CC(CC(C4)C2)C3)NC(=O)OC(C)(C)C)[C@H]1O | 22.1
CN(C)c1ncnc2c1ncn2[C@@H]1O[C@H](CCl)[C@@H](NC(=O)[C@@H](N)CSC23CC4CC(CC(C4)C2)C3)[C@H]1O | 10.4

query: Identify measured inhibition at 25 µM associated with COc1ccc(C[C@H](N)C(=O)N[C@H]2[C@@H](O)[C@H](n3cnc4c(N(C)C)ncnc43)O[C@@H]2CO)cc1
result: 99

query: Identify measured inhibition at 25 µM associated with CN(C)c1ncnc2c1ncn2[C@@H]1O[C@H](CO)[C@@H](NC(=O)[C@H](N)CSC(c2ccccc2)c2ccccc2)[C@H]1O
result: 0

query: Identify measured inhibition at 25 µM associated with CN(C)c1ncnc2c1ncn2[C@@H]1O[C@H](CO)[C@@H](NC(=O)[C@@H](N)CSC23CC4CC(CC(C4)C2)C3)[C@H]1O
result: 24

query: Identify measured inhibition at 25 µM associated with CN(C)c1ncnc2c1ncn2[C@@H]1O[C@H](CCl)[C@@H](NC(=O)[C@@H](CSC(c2ccccc2)c2ccccc2)NC(=O)OC(C)(C)C)[C@H]1O
result: 0

query: Identify measured inhibition at 25 µM associated with CN(C)c1ncnc2c1ncn2[C@@H]1O[C@H](CCl)[C@@H](NC(=O)[C@@H](N)CSC(c2ccccc2)c2ccccc2)[C@H]1O
result: 0

query: Identify measured inhibition at 25 µM associated with CN(C)c1ncnc2c1ncn2[C@@H]1O[C@H](CO)[C@@H](NC(=O)[C@@H](N)CSC(c2ccccc2)c2ccccc2)[C@H]1O
result: 0
